tested on: BT-549 breast; assay: NCI tumour cell line growth inhibition, 48 h

{"compound": "COc1ccc(/C(=N/Nc2nc3ccccc3[nH]2)C(=O)O)cc1", "TGI": "> 100 µM"}
{"compound": "Clc1ccccc1NN(Cc1ccncc1)c1ccccc1Cl", "TGI": "33.7 µM"}
{"compound": "COc1cc(C2CC(=O)Nc3c2cc(Br)c2ccccc32)cc(Br)c1OC (stereo unspecified)", "TGI": "> 71 µM"}
{"compound": "Cc1ccc(S(=O)(=O)c2ccc([N+](=O)[O-])o2)cc1", "TGI": "6.16 µM"}
{"compound": "CCOC(=O)/C(C#N)=C(/NNc1ccccc1)c1ccncc1C(=O)O", "TGI": "> 100 µM"}
{"compound": "Cc1c(C#N)c2nnn(-c3ccccc3)c(=O)n2c1-c1ccccc1", "TGI": "> 100 µM"}
{"compound": "O=C(/C=C(\\O)c1ccccc1)/C(=C/C(=O)c1ccccc1)NN=C(c1ccccc1)c1ccccc1", "TGI": "> 100 µM"}
{"compound": "CCOC(=O)C(NC(=O)CC)(Nc1ccc(S(=O)(=O)Nc2nc(C)cc(C)n2)cc1)C(F)(F)F (stereo unspecified)", "TGI": "> 100 µM"}
{"compound": "CC(NNC(=O)c1ccncc1)c1ccc(Cl)c(Cl)c1 (stereo unspecified)", "TGI": "> 100 µM"}
{"compound": "CCN1CCCC(Nc2cc(C)nc(/N=C(/N)Nc3ccc(Cl)c(Cl)c3)n2)C1 (stereo unspecified)", "TGI": "3.29 µM"}
{"compound": "COc1nc(OC)nc(-c2cccc(F)c2)n1", "TGI": "29.7 µM"}
